Values from ChEMBL document CHEMBL5500396

- tested-target: Beta-2 adrenergic receptor (Cavia porcellus)
- Sequence (Q8K4Z4 whole entry): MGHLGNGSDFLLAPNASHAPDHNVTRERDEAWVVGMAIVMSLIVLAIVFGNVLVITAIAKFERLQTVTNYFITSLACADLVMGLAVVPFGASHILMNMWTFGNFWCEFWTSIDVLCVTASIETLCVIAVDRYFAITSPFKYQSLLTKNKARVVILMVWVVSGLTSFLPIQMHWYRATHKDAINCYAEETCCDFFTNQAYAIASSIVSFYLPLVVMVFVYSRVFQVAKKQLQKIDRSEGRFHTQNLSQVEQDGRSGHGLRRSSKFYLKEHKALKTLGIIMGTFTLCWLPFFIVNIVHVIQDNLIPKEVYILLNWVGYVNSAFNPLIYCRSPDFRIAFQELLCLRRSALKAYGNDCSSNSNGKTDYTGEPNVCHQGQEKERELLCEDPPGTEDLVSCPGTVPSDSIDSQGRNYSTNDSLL
- experimental-protocol: Agonist activity at beta2 adrenoceptor in male albino Dunkin-Hartley guinea pig trachea assessed as inhibition of histamine induced smooth muscle contraction
pIC50: −log10 of the molar value.
Note to self: values exactly at 10 are 1 (yes). So pIC50 at or above 10 is 1 (yes), below is 0 (no).

• O=C(NCCCOc1cccc([C@@](O)(C(=O)OCC2CCN(Cc3ccccc3)CC2)c2ccccc2)c1)c1ccc(CNCC(O)c2ccc(O)c3[nH]c(=O)ccc23)cc1 (stereo partly specified) = 1 (yes)
• O=C(c1ccc(OCc2ccc(CNC[C@H](O)c3ccc(O)c4[nH]c(=O)ccc34)cc2)cc1)N1CC(C(=O)OC2CN3CCC2CC3)(c2ccccc2)C1 (single isomer, unassigned) = 0 (no)
• O=C(NCCCNC[C@H](O)c1ccc(O)c2[nH]c(=O)ccc12)c1ccc(COc2cccc([C@@](O)(C(=O)OCC3CCN(Cc4ccccc4)CC3)c3ccccc3)c2)cc1 = 0 (no)

---

- experimental-protocol: in vitro
- condition-notes: human, lung S9 fraction
- Description: Stability in human lung S9 fraction assessed as half-life at 1 uM incubated for 60 mins by LC-MS/MS analysis
experimental-endpoint: half-life at 1 h, 1 µM (min)

- CCN1CCC(COC(=O)[C@](O)(c2ccccc2)c2cccc(OCCCNC(=O)c3cc(OC)c(CNC[C@H](O)c4ccc(O)c5[nH]c(=O)ccc45)cc3F)c2)CC1.O=C(O)C(F)(F)F.O=C(O)C(F)(F)F: 280
- COc1cc(C(=O)NCCCOc2cccc([C@](O)(C(=O)OCC3CCN(Cc4ccccc4)CC3)c3ccccc3)c2)c(F)cc1CNC[C@H](O)c1ccc(O)c2[nH]c(=O)ccc12: 115
- O=C(c1ccc(CCNC[C@H](O)c2ccc(O)c3[nH]c(=O)ccc23)cc1)N1CCC(c2cccc([C@](O)(C(=O)OCC3CCN(Cc4ccccc4)CC3)c3ccccc3)c2)CC1: 180
- O=C(c1ccc(OCc2ccc(CNC[C@H](O)c3ccc(O)c4[nH]c(=O)ccc34)cc2)cc1)N1CCC(C(=O)OC2CN3CCC2CC3)(c2ccccc2)CC1 (single isomer, unassigned): 280
- COc1cc(C(=O)NCCCOc2cccc([C@](O)(C(=O)OCC3CCN(Cc4ccccc4)CC3)c3ccccc3)c2)ccc1CNC[C@H](O)c1ccc(O)c2[nH]c(=O)ccc12: 240

---

- tested-target: UniProtKB Q8K4Z4
- experimental-protocol: Agonist activity at beta2 adrenoceptor in male albino Dunkin-Hartley guinea pig trachea assessed as inhibition of histamine induced smooth muscle contraction
experimental-endpoint: IC50 (pM)

- O=C(c1ccc(CCNC[C@H](O)c2ccc(O)c3[nH]c(=O)ccc23)cc1)N1CCC(c2cccc([C@](O)(C(=O)OCC3CCN(Cc4ccccc4)CC3)c3ccccc3)c2)CC1: 631
- O=C(NCCCCNC[C@H](O)c1ccc(O)c2[nH]c(=O)ccc12)c1ccc(CNC2(C(=O)O[C@H]3CN4CCC3CC4)CCc3ccccc32)cc1 (mixture of isomers): 2510
- O=C(c1ccc(OCc2ccc(CNC[C@H](O)c3ccc(O)c4[nH]c(=O)ccc34)cc2)cc1)N1CCC(C(=O)OC2CN3CCC2CC3)(c2ccccc2)CC1 (single isomer, unassigned): 501
- O=C(NCCCNC[C@H](O)c1ccc(O)c2[nH]c(=O)ccc12)c1ccc(COc2cccc([C@](O)(C(=O)OCC3CCN(Cc4ccccc4)CC3)c3ccccc3)c2)cc1: 200
- O=C(N[C@@H](c1ccccc1)c1cccc(OCc2cccc(C(=O)NCCCCNC[C@H](O)c3ccc(O)c4[nH]c(=O)ccc34)c2)c1)O[C@H]1CN2CCC1CC2: 1000
- CCN1CCC(COC(=O)[C@](O)(c2ccccc2)c2cccc(OCCCNC(=O)c3cc(OC)c(CNC[C@H](O)c4ccc(O)c5[nH]c(=O)ccc45)cc3F)c2)CC1.O=C(O)C(F)(F)F.O=C(O)C(F)(F)F: 3160
- O=C(N[C@@H](c1ccccc1)c1cccc(OCc2ccc(C(=O)NCCCNC[C@H](O)c3ccc(O)c4[nH]c(=O)ccc34)cc2)c1)O[C@@H]1CN2CCC1CC2: 158
- O=C(NCCCCNC[C@H](O)c1ccc(O)c2[nH]c(=O)ccc12)c1ccc(CNC2(C(=O)OCC3CCN(Cc4ccccc4)CC3)CCc3ccccc32)s1 (mixture of isomers; 32): 25.1
- COc1cc(C(=O)NCCCOc2cccc([C@](O)(C(=O)OCC3CCN(Cc4ccccc4)CC3)c3ccccc3)c2)ccc1CNC[C@H](O)c1ccc(O)c2[nH]c(=O)ccc12: 12.6
- O=C(NCCCOc1cccc([C@](O)(C(=O)OCC2CCN(Cc3ccccc3)CC2)c2ccccc2)c1)c1ccc(CNC[C@H](O)c2ccc(O)c3[nH]c(=O)ccc23)cc1: 316
